Below: a set of entries, each annotated with reported Rel. CTS Specificity as % of MBG Binding: OUB.
- test-name: Competitive ELISA, relative CTS specificity, OUB as competitor
- Format: binding
- experimental-setup: competition with immobilized MBG-BSA; normalized to MBG = 100%

>>> meas_value("205/207: human anti-MBG antibody, VH SEQ ID NO: 53, VL SEQ ID NO: 54 (antibody, listed as Homo sapiens, V domains shown) VH: QLQLQESGPGLVKPSETLSLTCTVSGGSISSSSYYWGWIRQPPGKGLEWIGSIYYSGSTYYNPSLKSRVTISVDTSKNQFSLKLSSVTAADTAVYYCARFHTWAPRAFDIWGQGTMVTVSS VL: QSVVTQPPSVSAAPGQEVTISCSGSSSNIGNNYVSWYQQLPGTAPKLLIYDNNKRPSGIPDRFSGSKSGTSATLGITGLQTGDEADYYCGTWDSSLSALFGGGTKLTVL")
"0%"

Task: Look up Rel. CTS Specificity as % of MBG Binding: OUB for this molecule: 203/204: human anti-MBG antibody, VH SEQ ID NO: 30, VL SEQ ID NO: 31 (antibody, listed as Homo sapiens, V domains shown) VH: QLQLQESGPGLVKPSETLSLTCTVSGGSISSYYWGWIRQPPGKGLEWIGSIYYSGSTYYNPSLKSRVTISVDTSKNQFSLQLKSVTPEDTAVYYCARVRPPAATFDYWGQGTLVTVSS VL: QSVVTQPPSVSAAPGQKVSISCSGGSSNIGNNYVSWYQQLPGTAPRLLIYENNNRPSGIPDRFSGSKSGTSATLGITGLQTGDEADYYCGTWDSSLRAVVFGGGTKLTVL
Result: 0%
